Data origin, for the record: patent US8946234B2

Would you mind telling me the reported logP of each entry?
assay.info: logP by HPLC on a C18 phase inversion column, EEC Directive 79/831 Annex V.A8, method b) (HP1100, 5-95% acetonitrile in 1.70 min)
Assay type: physicochemical
experimental.parameters: HPLC method b)

Reported logP, compound CC(CF)NC(=O)c1cc(NC(=O)c2c(C(F)(F)F)c(C(F)(F)C(F)(F)F)nn2C)ccc1Cl (stereo not shown) [Ik-290] : ____
3.28^b)

How about this compound: CCc1c(C(F)(F)C(F)(F)F)nn(C)c1C(=O)Nc1ccc(Cl)c(C(=O)NCc2ccccc2)c1 [Ik-272]
3.68^b)

For CC(C)N(C)C(=O)c1cc(NC(=O)c2c(C(F)(F)F)c(C(F)(F)C(F)(F)F)nn2C)ccc1Cl [Ik-35] then?
3.73^b)

How about this compound: Cc1ccc(CNC(=O)c2cc(NC(=O)c3c(C(F)(F)F)c(C(F)(F)C(F)(F)F)nn3C)ccc2Cl)cc1 [Ik-306]
3.94^b)

Continue with Cn1nc(C(F)(F)C(F)(F)F)c(C(F)(F)F)c1C(=O)Nc1ccc(Cl)c(C(=O)NC2CCOCC2)c1 [Ik-285]
3.06^b)

Do the same for Cn1nc(C(F)(F)C(F)(F)F)c(C(F)(F)F)c1C(=O)Nc1ccc(Cl)c(C(=O)NCc2ncn[nH]2)c1 [Ik-29] please
2.31^b)

Here is the next compound: Cn1nc(C(F)(F)C(F)(F)F)c(C(F)(F)F)c1C(=O)Nc1ccc(Cl)c(C(=O)NCc2ccc(Cl)cc2)c1 [Ik-283]
4.05^b)
